- Subject of test: UniProt E9AFX2
- Sequence (E9AFX2 whole entry): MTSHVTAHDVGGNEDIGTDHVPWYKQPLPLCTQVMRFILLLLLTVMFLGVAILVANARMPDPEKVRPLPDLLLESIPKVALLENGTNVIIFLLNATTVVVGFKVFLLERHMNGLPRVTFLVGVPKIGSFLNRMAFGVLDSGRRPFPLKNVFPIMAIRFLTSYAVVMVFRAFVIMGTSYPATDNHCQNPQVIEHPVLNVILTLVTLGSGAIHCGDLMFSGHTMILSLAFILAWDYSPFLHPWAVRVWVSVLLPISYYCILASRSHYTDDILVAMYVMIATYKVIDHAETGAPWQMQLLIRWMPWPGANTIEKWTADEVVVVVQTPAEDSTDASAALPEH
- Test summary: biochemical
- Type: biochemical
- Set-up: dose or concentration left out as unconfirmed
- Test conditions: NINDS set screen; read-out: inhibition LmjIPCS
Form field: inhibition (one value per entry).
Supply the numeric figure in %, leaving out any unit text.

Examples with their reported inhibition follow.
Compound: CC(=O)NC1CCSC1=O (stereo not drawn) [CITIOLONE]
inhibition (%): -8
//
Compound: CC1=NCCc2c1[nH]c1cc(O)ccc21 [HARMALOL]
inhibition (%): 17
//
Compound: Nc1ccc(S(=O)(=O)NC(=O)c2ccccc2)cc1 [SULFABENZAMIDE]
inhibition (%): -6

Could you now consider this next compound?
Record O=c1oc2c(O)c(O)cc3c(=O)oc4c(O)c(O)cc1c4c23 [ELLAGIC ACID] / UniProt E9AFX2, inhibition recorded as 22

meta.source: paper PMC7802075
